# Study system: spastin-Q488V (aa 209–758) (Drosophila melanogaster, UniProt Q8I0P1, Q488V)
# Sequence (Q8I0P1 209-758 Q488V): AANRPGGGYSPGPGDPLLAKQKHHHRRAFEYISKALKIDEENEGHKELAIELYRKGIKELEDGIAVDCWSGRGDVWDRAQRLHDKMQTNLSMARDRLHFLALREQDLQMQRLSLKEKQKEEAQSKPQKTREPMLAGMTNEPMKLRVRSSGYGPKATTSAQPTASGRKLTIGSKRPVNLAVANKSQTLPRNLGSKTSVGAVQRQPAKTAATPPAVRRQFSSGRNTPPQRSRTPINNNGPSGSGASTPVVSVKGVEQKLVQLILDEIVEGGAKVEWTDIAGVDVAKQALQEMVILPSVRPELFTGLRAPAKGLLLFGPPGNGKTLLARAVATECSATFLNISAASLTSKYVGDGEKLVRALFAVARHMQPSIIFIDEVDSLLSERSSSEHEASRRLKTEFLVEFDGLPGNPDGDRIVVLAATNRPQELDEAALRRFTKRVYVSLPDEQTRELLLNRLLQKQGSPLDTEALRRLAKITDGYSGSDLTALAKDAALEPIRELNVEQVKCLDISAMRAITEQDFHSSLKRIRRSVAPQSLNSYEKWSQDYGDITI
# Assay details: Steady-state ATPase activity, NADH-coupled assay, spastin-Q488V
Hi there, I'd appreciate the recorded IC50 for every entry that follows.

Query :: # query: IC50 of entry Nc1nc(Nc2ccc(S(N)(=O)=O)cc2)nn1C(=O)c1c(F)cccc1F [compound 1]
Result :: 8.9 µM

Query :: Would you kindly repeat that for CNC(=O)c1cccc(Nc2nc(N)n(C(=O)c3c(F)cccc3OC)n2)c1 [compound 4] ?
Result :: 2.6 µM

###

# Study system: spastin-T692A (aa 209–758) (Drosophila melanogaster, UniProt Q8I0P1, T692A)
# Sequence (Q8I0P1 209-758 T692A): as the sequence (Q8I0P1 209-758 Q488V) above, with V280Q, T484A counted along it
# Assay details: Steady-state ATPase activity, NADH-coupled assay, spastin-T692A
Hi there, I'd appreciate the recorded IC50 for every entry that follows.
Respond with the bare value in nM.

Query :: # query: IC50 of entry CNC(=O)c1cccc(Nc2nc(N)n(C(=O)c3c(F)cccc3OC)n2)c1 [compound 4]
Result :: 220

Query :: Would you kindly repeat that for Nc1nc(Nc2ccc(S(N)(=O)=O)cc2)nn1C(=O)c1c(F)cccc1F [compound 1] ?
Result :: 900

# credit: paper PMC6754270
